Exercise: state measured TGI for each of the compounds provided.
System: DLD-1 colon
Assay: NCI tumour cell line growth inhibition, 48 h

Ask: For the compound CCOC(=O)c1c[nH]c2ccc3c(c2c1=O)S(=O)(=O)CC3 (tested in a mixture with another compound) , give its reported TGI.
Result: > 100 µM

For every item below, please supply its TGI.
1. O=C1CCCC/C1=C\c1ccc(Cl)c(Cl)c1
2. c1ccc2c(c1)CCc1c-2n[nH]c1-c1[nH]nc2c1CCc1ccccc1-2

Result:
["61.6 µM", "> 100 µM"]

For every item below, please supply its TGI.
1. O=Cc1ccc2c(c1I)OCO2
2. COc1cc(C2(C)SCCCS2)cc(OC)c1OC

Result:
> 100 µM
> 100 µM

For every item below, please supply its TGI.
1. CC1=NN(c2ccccc2)C(=O)/C1=C\c1ccc([N+](=O)[O-])cc1
2. O=C1c2ccccc2N2OC3(N4CCCC4)CCCCC3C12c1ccccc1 (stereo not drawn)
3. N[C@H](COCc1ccccc1)c1ccccc1

Result:
1. > 100 µM
2. 46.3 µM
3. > 100 µM
